Test system: TK-10
MEASUREMENT_NOTES: NCI tumour cell line growth inhibition, 48 h
Active and inactive are the calls of the source. Rule as the data show it: active = GI50 up to about 1.1 µM and inactive = higher.
Possible outcomes: active, inactive

| COMPOUND | CATEGORY_LABEL |
| --- | --- |
| CC(=O)Oc1ccc(-c2cc3ccccc3oc2=O)cc1 | inactive |
| CC(C)CN1CN(c2ccccc2)C2(CCN(CC(C)(c3ccc(F)cc3)C3OCCO3)CC2)C1=O (configuration not stated) | inactive |
| CC(C)(C)[Si](C)(C)OCC1CCC(n2cnc3c(NC(=O)c4ccccc4)ncnc32)O1 (configuration not stated) | inactive |
| O=c1[nH]nc(NNc2ccccc2)c2nnn(C3CCCCC3)c12 | inactive |
| O=C(O)CC(Cc1ccc2c(c1)OCO2)C(=O)O (configuration not stated) | inactive |
| COc1ccc2c(c1OC)C(=O)O[C@@H]2[C@H]1c2cc3c(cc2CCN1C)OCO3 | inactive |
| C=Cc1cc(OC)c2c(c1)c(=O)oc1c2cc(OC)c2c(O)ccc(C3OC(C)C(O)C(C)(O)C3O)c21 (configuration not stated) | active |
| Cc1c(-c2ccccc2)c(-c2ccc(OCCN(C)C)cc2)n2ccccc12 | inactive |
| CC(C)C1CO[C@]2(C)CCC(=O)N12 (some centres not stated) | inactive |
| Cc1c(Cl)cccc1NC(=O)C(=O)C1C(=O)CC(C)(C)CC1=O | inactive |
| O=[N+]([O-])c1cccc2nc3ccccc3c(NCCCN3CCCCC3)c12 | active |
| CCOC(=O)C1S/C(=N\c2ccc(Cl)cc2)N=C1C (configuration not stated) | inactive |

----------
Tested on: IGROV-1
MEASUREMENT_NOTES: NCI tumour cell line growth inhibition, 48 h
Activity calls are given as the source filed them. Rule as the data show it: active = GI50 up to about 1.1 µM and inactive = higher. Where a SMILES comes first, the peptide text is derived from it. The star is where a group is joined. Boc = CC(C)(C)OC(=O)*; OSu = O=C1CCC(=O)N1O*
QUANTITY_MEASURED: GI50

| COMPOUND | MEASURED_ON | TEST_RESULT |
| --- | --- | --- |
| C/C(=N\NS(=O)(=O)c1ccc(C)cc1)C(CN1CCOCC1)C(c1ccccc1)c1c(O)c2ccccc2oc1=O (stereo unspecified) | IGROV-1 | > 100 µM (inactive) |
| CC1NOC(=O)C1/N=N/c1ccc(Cl)cc1Cl (stereo unspecified) | IGROV-1 | 26.9 µM (inactive) |
| Clc1ccc(-n2nnc(C3=NCCCN3)c2-c2ccccc2)cc1 | IGROV-1 | > 100 µM (inactive) |
| NC(=O)c1ncn(C2OC(CO)C(O)C2O)c1NC(=S)NC(=O)c1ccccc1 (stereo unspecified) | IGROV-1 | > 100 µM (inactive) |
| CC(C)(C)OC(=O)NC(Cc1ccc(O)cc1)C(=O)NC(CCCCN)C(=O)NC(Cc1ccc(O)cc1)C(=O)NC(CCCCN)C(=O)ON1C(=O)CCC1=O (stereo unspecified) (Boc-YKYK-OSu; configuration not given here) | IGROV-1 | 85.3 µM (inactive) |
| O=C(O)CCC(=O)N1c2ccccc2CC1c1c[nH]c2ccccc12 (stereo unspecified) | IGROV-1 | > 100 µM (inactive) |
| CN(C)CCCn1c(Cn2nc3ccccc3n2)nc2cc(C(F)(F)F)ccc21 | IGROV-1 | 29 µM (inactive) |
| CCCCCCCCCCCCCCCCCCNc1nc(=O)n(C2CC(O)C(COP(=O)(O)O)O2)cc1F (stereo unspecified) | IGROV-1 | > 74.8 µM (inactive) |
| CCOc1ccc(NC(=O)/C(Cc2nc3ccccc3nc2O)=N\O)cc1 | IGROV-1 | > 100 µM (inactive) |
| COc1cc(/C=C/C(=N\NC(N)=S)c2sc(NNC(C)=O)nc2C)ccc1O | IGROV-1 | > 100 µM (inactive) |
| CCOC1CN=C(Nc2cccc3ccccc23)S1 (stereo unspecified) | IGROV-1 | > 10 µM (inactive) |
| Cn1c2c(c3ccccc31)C1CCCCC1C1C(=O)NC(=O)C21 (stereo unspecified) | IGROV-1 | > 100 µM (inactive) |
| CCOC(=O)Nc1ccc(S(=O)(=O)Nc2ccc(Br)cc2)cc1 | IGROV-1 | 35 µM (inactive) |
| CCc1ccc(Nc2cc(=O)n(C)c(SCc3ccccc3)n2)cc1 | IGROV-1 | 83.9 µM (inactive) |
| CC(=O)Oc1c(C)cc2c(c1C)C(C)CN2C(C)=O (stereo unspecified) | IGROV-1 | > 100 µM (inactive) |
| O=C(Nc1noc(-c2ccccc2)n1)c1ccccc1CNc1noc(-c2ccccc2)n1 | IGROV-1 | > 100 µM (inactive) |
| N#[N+]c1cc2c(cc1Br)-c1ccccc1C2 | IGROV-1 | 38.8 µM (inactive) |
| CCCCCCCCCCCCCCCCNCCCN(C)CCCN | IGROV-1 | 20.3 µM (inactive) |
| COc1cccc(-c2cc(C(=O)Nc3ccc(Cl)cc3)nc(N)n2)c1 | IGROV-1 | 50.7 µM (inactive) |
| C=CC(=O)Nc1ccccc1CC(c1c[nH]c2ccccc12)c1c[nH]c2ccccc12 | IGROV-1 | 18.2 µM (inactive) |
| CN(C)CCCSc1c2ccccc2nc2cc(NCC(=O)Nc3ccccc3-c3ccccc3NC(=O)CNc3ccc4c(SCCCN(C)C)c5ccccc5nc4c3)ccc12 | IGROV-1 | > 100 µM (inactive) |

----------
System: OVCAR-8
MEASUREMENT_NOTES: NCI tumour cell line growth inhibition, 48 h
Calls of active or inactive are those of the source. Rule as the data show it: active = GI50 up to about 1.1 µM and inactive = higher.
Possible outcomes: active, inactive

| COMPOUND | CATEGORY_LABEL |
| --- | --- |
| CC(C)CN1CN(c2ccccc2)C2(CCN(CC(C)(c3ccc(F)cc3)C3OCCO3)CC2)C1=O (configuration not stated) | inactive |
| COc1ccc(CN[C@H]2CCc3cc(OC)c(OC)c(OC)c3-c3ccc(SC)c(=O)cc32)c(OC)c1OC | active |
| CC(=O)NC1C(OCc2ccccc2)OC(CO)C(O)C1OCC(=O)N[C@@H](C)C(=O)N[C@H](CCC(=O)NCCCCNc1c2ccccc2nc2cccc([N+](=O)[O-])c12)C(N)=O (some centres not stated) | inactive |
| CCOC(=O)CCC(NC(=O)OCc1ccccc1)C(=O)NC(CCC(=O)OCC)C(=O)NC(CCC(=O)OCC)C(=O)NC(CCC(=O)OCC)C(=O)NC(CCC(=O)OCC)C(=O)NC(CCC(=O)OCC)C(=O)NC(CCC(=O)OCC)C(=O)OCC (configuration not stated) | inactive |
| CC1=C(C(=O)CC(=O)C(=O)Nc2ccccc2)Sc2ccccc2N1 | inactive |
| O=CC1CCC=CC1NC(=O)OCc1ccccc1 (configuration not stated) | inactive |
| COc1c2c(cc3c1OCO3)C13C=CC(OC)CC1N(CC3)C2.[O-][Cl+3]([O-])([O-])O (configuration not stated) | inactive |
| O=C(/C=C/c1ccc(Cl)c(Cl)c1)c1ccc(F)cc1 | inactive |
| Cc1c(-c2ccccc2)c(-c2ccc(OCCN(C)C)cc2)n2ccccc12 | inactive |
| COc1ccc(Oc2nc(C#CC(C)(C)O)nc(Oc3ccc(OC)cc3)n2)cc1 | inactive |
| CCN(CC)CCCC(C)Nc1ccnc2ccc3nn(C)nc3c12 (configuration not stated) | inactive |
| Clc1ccc(-c2nn3c(COc4ccc(OCc5nnc6sc(-c7ccc(Cl)cc7)nn56)c(Cl)c4)nnc3s2)cc1 | inactive |
| O=C1Nc2ccccc2N/C1=C\C(=O)c1ccccc1O | inactive |
| CN1CCN(CCNc2ccc(CO)c3sc4ccccc4c(=O)c23)CC1 | inactive |
| COc1cc2c(cc1OC)CC(=O)Nc1cc(OC)c(OC)cc1CC2 | inactive |
| Cc1ccc(-c2cc(=O)c3cc(C)c(C)c(C(=O)O)c3o2)cc1N | inactive |
| C[C@]12CCC(=O)C=C1CC[C@@H]1[C@@H]2CC[C@]2(C)C(=O)NC(=O)C[C@@H]12 | inactive |
| Cc1ccc(/C=C2\NC(=S)NC2=O)cc1 | inactive |
| Cc1ccc2nc(C(=O)O)c(=O)[nH]c2c1 | inactive |
| Nc1ccc(-c2nc3cc(F)ccc3s2)cc1CO | inactive |
| CCCCN(CCCC)C1=Nc2ccccc2-n2c(nnc2C(=O)OCC)C1 | inactive |
| CC(=O)Oc1ccc(-c2cc3ccccc3oc2=O)cc1 | inactive |
| CC(=O)N1CCN(C23OC4(N5CCN(C(C)=O)CC5)C5C6CC(C7C6C4C72)C53)CC1 (configuration not stated) | inactive |
| O=[N+]([O-])c1ccc(NN=C2c3ccccc3Cc3ccccc32)c([N+](=O)[O-])c1 | inactive |
| Nc1ncnc2c1ncn2COC/C=C/I | inactive |
| C=C1CN(C2=NCCO2)C1 | inactive |
| O=C(Nc1noc(-c2ccccc2)n1)c1ccccc1CNc1noc(-c2ccccc2)n1 | inactive |

Data credit: ChEMBL document CHEMBL1201862
